// data source = ChEMBL document CHEMBL1146879

- assay.text: Half life in mouse
- Type: ADME, organism-based
- study.conditions: in vivo

{"molecule": "CN(C)c1nc2ccc(-n3cnc4cc(-c5ccc(Cl)cc5)sc4c3=O)cc2n1C", "half-life, h": 6}

###

Form field: pIC50 (one value per entry).
- tgt: Melanin-concentrating hormone receptor 1 (Homo sapiens, UniProt Q99705)
- Sequence (Q99705 whole entry): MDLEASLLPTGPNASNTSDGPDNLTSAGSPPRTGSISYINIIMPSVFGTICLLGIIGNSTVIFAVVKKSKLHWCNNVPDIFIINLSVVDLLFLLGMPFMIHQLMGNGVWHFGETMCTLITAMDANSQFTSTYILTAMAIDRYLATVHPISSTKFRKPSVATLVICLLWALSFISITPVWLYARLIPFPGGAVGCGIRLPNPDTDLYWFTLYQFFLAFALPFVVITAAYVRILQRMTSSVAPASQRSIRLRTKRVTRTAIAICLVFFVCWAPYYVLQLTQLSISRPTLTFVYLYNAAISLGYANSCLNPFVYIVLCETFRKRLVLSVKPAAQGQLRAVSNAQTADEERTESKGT
- assay.text: Antagonist activity against MCH1R expressed in CHO cells assessed as inhibition of MCH-induced EC80 […] response by luciferase reporter gene assay
pIC50: −log10 of the molar value.

{"molecule": "CN(C)c1nc2cc(-n3cnc4cc(-c5ccc(Cl)cc5)sc4c3=O)ccc2n1C", "pIC50": 8.20}
{"molecule": "CN(CCN1CCCC1)c1nc2cc(-n3cnc4cc(-c5ccc(Cl)cc5)sc4c3=O)ccc2[nH]1", "pIC50": 8.30}
{"molecule": "CN(C)c1nc2cc(-n3cnc4cc(-c5ccc(Cl)cc5)sc4c3=O)ccc2n1CCO", "pIC50": 8.00}
{"molecule": "CCCn1c(N(C)C)nc2ccc(-n3cnc4cc(-c5ccc(Cl)cc5)sc4c3=O)cc21", "pIC50": 8.30}
{"molecule": "O=c1c2sc(-c3ccc(Cl)cc3)cc2ncn1-c1ccc2[nH]c(N3CCCC3)nc2c1", "pIC50": 8.50}
{"molecule": "CC(C)Nc1nc2cc(-n3cnc4cc(-c5ccc(Cl)cc5)sc4c3=O)ccc2[nH]1", "pIC50": 8.10}
{"molecule": "Cn1c(N2CCCC2)nc2ccc(-n3cnc4cc(-c5ccc(Cl)cc5)sc4c3=O)cc21", "pIC50": 8.20}
{"molecule": "COc1ccc(Cn2c(N(C)C)nc3cc(-n4cnc5cc(-c6ccc(Cl)cc6)sc5c4=O)ccc32)cc1", "pIC50": 7.90}
{"molecule": "COCCCn1c(C)nc2cc(-n3cnc4cc(-c5ccc(Cl)cc5)sc4c3=O)ccc21", "pIC50": 8.30}

###

- assay.text: Bioavailability in rat at 3 mg/kg, iv and 5 to 10 mg/kg, po
- Assay type: ADME, organism-based
- study.conditions: in vivo
Note to self: values exactly at 4% are True. So bioavailability at or above 4% is True, below is False.

{"molecule": "Cc1nc2cc(-n3cnc4cc(-c5ccc(Cl)cc5)sc4c3=O)ccc2n1CCCO", "cat": "True"}
{"molecule": "O=c1c2sc(-c3ccc(Cl)cc3)cc2ncn1-c1ccc2[nH]c(N3CCCC3)nc2c1", "cat": "True"}
{"molecule": "CN(C)c1nc2cc(-n3cnc4cc(-c5ccc(Cl)cc5)sc4c3=O)ccc2n1CCO", "cat": "True"}
{"molecule": "Cc1nc2cc(-n3cnc4cc(-c5ccc(Cl)cc5)sc4c3=O)ccc2n1CCN1CCOCC1", "cat": "True"}
{"molecule": "CCCn1c(N(C)C)nc2ccc(-n3cnc4cc(-c5ccc(Cl)cc5)sc4c3=O)cc21", "cat": "True"}
{"molecule": "CCCn1c(N(C)C)nc2cc(-n3cnc4cc(-c5ccc(Cl)cc5)sc4c3=O)ccc21", "cat": "True"}
{"molecule": "COc1ccc(-n2c(C)nc3cc(-n4cnc5cc(-c6ccc(Cl)cc6)sc5c4=O)ccc32)cc1", "cat": "False"}
{"molecule": "CN(C)c1nc2ccc(-n3cnc4cc(-c5ccc(Cl)cc5)sc4c3=O)cc2n1CCO", "cat": "True"}
{"molecule": "COCCCn1c(C)nc2cc(-n3cnc4cc(-c5ccc(Cl)cc5)sc4c3=O)ccc21", "cat": "True"}
{"molecule": "CN(CCN1CCCC1)c1nc2cc(-n3cnc4cc(-c5ccc(Cl)cc5)sc4c3=O)ccc2[nH]1", "cat": "False"}
{"molecule": "O=c1c2sc(-c3ccc(Cl)cc3)cc2ncn1-c1ccc2[nH]c(NCCN3CCCC3)nc2c1", "cat": "False"}
{"molecule": "COc1ccc(-n2c(N(C)C)nc3cc(-n4cnc5cc(-c6ccc(Cl)cc6)sc5c4=O)ccc32)cc1", "cat": "True"}
{"molecule": "O=c1c2sc(-c3ccc(Cl)cc3)cc2ncn1-c1ccc2[nH]c(N3CCCCC3)nc2c1", "cat": "True"}
{"molecule": "Cn1c(N2CCCC2)nc2ccc(-n3cnc4cc(-c5ccc(Cl)cc5)sc4c3=O)cc21", "cat": "True"}
{"molecule": "CN(C)c1nc2ccc(-n3cnc4cc(-c5ccc(Cl)cc5)sc4c3=O)cc2n1C", "cat": "True"}
{"molecule": "CNc1nc2cc(-n3cnc4cc(-c5ccc(Cl)cc5)sc4c3=O)ccc2[nH]1", "cat": "False"}
{"molecule": "Cc1nc2cc(-n3cnc4cc(-c5ccc(Cl)cc5)sc4c3=O)ccc2n1CCN1CCCC1", "cat": "True"}
{"molecule": "Cc1nc2cc(-n3cnc4cc(-c5ccc(Cl)cc5)sc4c3=O)ccc2n1C1CCCCC1", "cat": "False"}
